experimental system: Ubiquitin carboxyl-terminal hydrolase 28 (Homo sapiens)
assay details: Concentration-response biochemical assay confirming initial hits as inhibitors of ubiquitin-specific protease 28 (AID 1645866)
assay context: purified USP28, ubiquitin-rhodamine fluorescence, 30 min
The source made the active and inactive calls.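 How the source made its calls: active means in confirmatory dose-response testing, peak deubiquitinase inhibition of 30% or more; inactive means the rest.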
For each record, write down the corresponding IC50.

-- ask Item Nc1c(-c2nc(-c3ccc4c(c3)OCO4)cs2)nnn1-c1ccccc1 : provide IC50
-- reply 30.8 µM

-- ask # return recorded IC50 for input CC[C@@]1(O)C[C@H](OC2CC(N(C)C)C(OC3CC(O)C(OC4CCC(=O)C(C)O4)C(C)O3)C(C)O2)c2c(cc3c(c2O)C(=O)c2c(O)ccc(O)c2C3=O)[C@H]1C(=O)OC (some centres not stated)
-- reply 4.26 µM

-- ask Input Cc1c(C)n(-c2ccccc2)c2ncn(CC(=O)N(C)Cc3ccccc3)c(=O)c12 , output reported IC50.
-- reply > 50 µM (inactive)

-- ask Retrieve IC50 measured for O=C(COc1ccc(Cl)cc1)NCc1nnc(SCC(=O)NCc2ccc3c(c2)OCO3)o1 and print it.
-- reply 28.4 µM

-- ask Look up and report measured IC50 for this entry: O=C(CCn1c(=O)c2sccc2n(CC(=O)OCc2ccccc2)c1=O)NCc1ccc2c(c1)OCO2
-- reply 18 µM

-- ask Note IC50 for the molecule shown: O=C(NCc1cccnc1)C1CCN(c2cnc(N3CCCCCC3)nc2)CC1
-- reply 0.0687 µM

-- ask Please look at this molecule and report its IC50: CC1CC[C@]2(NC1)O[C@H]1C[C@H]3[C@@H]4CC[C@H]5C[C@@H](O[C@@H]6O[C@H](CO)[C@H](O[C@@H]7O[C@H](CO)[C@@H](O)[C@H](O[C@@H]8OC[C@@H](O)[C@H](O)[C@H]8O)[C@H]7O[C@@H]7O[C@H](CO)[C@@H](O)[C@H](O)[C@H]7O)[C@H](O)[C@H]6O)CC[C@]5(C)[C@H]4CC[C@]3(C)[C@H]1[C@@H]2C (some centres not stated)
-- reply 30.5 µM

-- ask Tell us which IC50 value is on record for O=C1Nc2c(Cl)cc(Cl)cc2C1(O)c1sc(NC2CCCCC2)nc1-c1ccccc1 (configuration not stated)
-- reply 24.6 µM

-- ask Answer with the recorded IC50 of COc1ccc(C2CC(c3ccccc3)N(C(=O)C3CC3)c3ncnn32)cc1 (configuration not stated) only.
-- reply > 50 µM (inactive)

-- ask Please give measured IC50 of the following entry: CC[C@H](C)[C@H](NC(=O)[C@H]([C@@H](C)CC)N(C)C(C)=O)C(=O)N[C@H](C(=O)N[C@@H](CC(C)C)C(=O)C1(C)CO1)[C@@H](C)O (some centres not stated)
-- reply > 50 µM (inactive)

-- ask Return the recorded IC50 value; entry: O=C(Nc1nnc2n1CCCS2)c1cc2ccccc2o1
-- reply 4.43 µM

-- ask Please give the documented IC50 of CC(=O)Nc1cc(-c2cccc(O)c2)cn2c(-c3cnn(C)c3)cnc12
-- reply 5.99 µM
